target: T1, M9; assay: ELISA, 1 ug/ml
T1 construct: also called PD1 mutant M9
Quick reference: OD490 of the listed items.

binder: PD1-52E8 (antibody, V domains shown, scFv-phage in the screening ELISA; whole IgG in the other assays) VH: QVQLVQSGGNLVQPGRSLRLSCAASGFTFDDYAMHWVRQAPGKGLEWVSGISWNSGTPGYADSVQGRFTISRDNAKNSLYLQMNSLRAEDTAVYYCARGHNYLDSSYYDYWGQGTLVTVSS VL: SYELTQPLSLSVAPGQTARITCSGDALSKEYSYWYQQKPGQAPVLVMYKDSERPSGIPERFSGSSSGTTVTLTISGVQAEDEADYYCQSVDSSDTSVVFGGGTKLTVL
OD490: 2.4
--
binder: PD1-49A2 (antibody, V domains shown, scFv-phage in the screening ELISA; whole IgG in the other assays; also called Parent 49A2) VH: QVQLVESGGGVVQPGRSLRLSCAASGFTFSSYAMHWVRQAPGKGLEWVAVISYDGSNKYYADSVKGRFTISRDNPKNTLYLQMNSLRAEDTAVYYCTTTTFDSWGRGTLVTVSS VL: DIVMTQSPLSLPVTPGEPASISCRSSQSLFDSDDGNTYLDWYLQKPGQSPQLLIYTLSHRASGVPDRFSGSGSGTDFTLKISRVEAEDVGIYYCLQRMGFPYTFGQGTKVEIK
OD490: 3.7
--
binder: PD1-45D6 (antibody, V domains shown, scFv-phage in the screening ELISA; whole IgG in the other assays) VH: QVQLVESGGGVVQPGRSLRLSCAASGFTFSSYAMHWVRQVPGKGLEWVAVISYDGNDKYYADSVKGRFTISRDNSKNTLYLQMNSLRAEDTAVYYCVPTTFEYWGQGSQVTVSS VL: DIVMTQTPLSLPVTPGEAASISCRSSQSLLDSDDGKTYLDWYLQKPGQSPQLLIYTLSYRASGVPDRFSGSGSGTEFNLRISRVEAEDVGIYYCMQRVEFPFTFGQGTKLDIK
OD490: 3.8
--
binder: PD1-41C9 (antibody, V domains shown, scFv-phage in the screening ELISA; whole IgG in the other assays) VH: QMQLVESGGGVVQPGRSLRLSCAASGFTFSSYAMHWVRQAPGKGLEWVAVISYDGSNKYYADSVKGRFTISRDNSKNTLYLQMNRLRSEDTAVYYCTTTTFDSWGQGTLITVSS VL: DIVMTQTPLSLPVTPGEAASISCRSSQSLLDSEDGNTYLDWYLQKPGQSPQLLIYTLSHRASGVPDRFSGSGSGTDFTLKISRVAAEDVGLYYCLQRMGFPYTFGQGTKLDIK
OD490: 3.3
